The values you see were collected from paper PMC7019770.

- measurement-target: Mab2-5G2, monoclonal anti-idiotypic antibody recognizing an antibody that specifically interacts with PRRSV glycoprotein 5 (GP5)
- experiment-notes: ELISA
- measurement-context: chain shown with the change; Mab2-5G2 as plate-coating protein; anti-PRA rabbit serum for detection; parent: est. 1.6; read off a plot
Catalogue of response values

binder: PRA, C-terminal domain of MYH9 (recombinant, wild type) E1670A; K1673A; E1679A; I1683A (protein) MRELEDTRASREEILAQAKANEAKLKSMAAEMAQLQEELAAAERAKRQAQQERDELADEIANSSGKGALALEEKRRLEARIAQLEEELEEEQGNTELVNDRLKKANLQIDQINTDLNLERSHAQKNENARQQLERQNKELKVKLQEMEGTVKSKYKASIAALEAKIAQLEEQLDNETKERQAACKQVRRAEKKLKDVLLQVDDERRNAEQYKDQADKASTRLKQLKRQLEEAEEEAQRANASRRKLQRELEDATETADAMNREVSSLKNKLRRGDLPFVVPRRMGRKGAGDCSDEEVDGKADGAEAKAAE
response, OD450: 0.41

binder: PRA, C-terminal domain of MYH9 (recombinant, wild type) E1679A (protein) MRELEDTRASREEILAQAKENEKKLKSMAAEMIQLQEELAAAERAKRQAQQERDELADEIANSSGKGALALEEKRRLEARIAQLEEELEEEQGNTELVNDRLKKANLQIDQINTDLNLERSHAQKNENARQQLERQNKELKVKLQEMEGTVKSKYKASIAALEAKIAQLEEQLDNETKERQAACKQVRRAEKKLKDVLLQVDDERRNAEQYKDQADKASTRLKQLKRQLEEAEEEAQRANASRRKLQRELEDATETADAMNREVSSLKNKLRRGDLPFVVPRRMGRKGAGDCSDEEVDGKADGAEAKAAE
response, OD450: 0.36
